Source of measurements: paper PMC10610016

# protocol description: ABTS assay
# Type: biochemical
# condition summary: compound 100 µM
reported endpoint: radical scavenger / antioxidant activity, ABTS (%)
Form entry: value (%) — number only.

Data request: Looking for the measured radical scavenger / antioxidant activity, ABTS of O=C(/C=C/c1ccc(O)c(O)c1)NOCc1ccccc1C(F)(F)F , can you help?
Data returned: 99.1

Data request: If you can, please state the reported radical scavenger / antioxidant activity, ABTS value of O=C(/C=C/c1ccc(O)cc1O)NOCc1cccc(C(F)(F)F)c1 .
Data returned: 67

Data request: Consider the compound shown here: O=C(/C=C/c1ccc(O)cc1O)NOCc1ccccc1C(F)(F)F What is its recorded radical scavenger / antioxidant activity, ABTS?
Data returned: 68

Data request: Could you share which radical scavenger / antioxidant activity, ABTS value was measured for O=C(/C=C/c1ccc(O)c(O)c1)NOCc1ccc(C(F)(F)F)cc1 ?
Data returned: 97.3

Data request: Endpoint output: radical scavenger / antioxidant activity, ABTS of O=C(/C=C/c1ccc(O)cc1O)NOCc1ccc(C(F)(F)F)cc1 . Value?
Data returned: 65

Data request: # get_value(readout='radical scavenger / antioxidant activity, ABTS', item= O=C(/C=C/c1ccc(O)c(O)c1)NOCc1cccc(C(F)(F)F)c1 )
Data returned: 98.8
